Hey, just so you know, these numbers are from paper PMC9551036.

experiment: Cell viability assay (CellTiter Glo) in a panel of cell lines; assay type: cell-based, human; settings: human, HCC4006 cells, HCC4006; log10 conc -5.90309 mol/l;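 also: percent of DMSO-treated control cells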
measured-quantity: viability at 1.25 µM (%)

• Cc1ncsc1-c1ccc(C(CCC(C)CCN2CCC(c3ccc4c(c3)n(C3CCCC3)c3nc(=O)c5c(Br)cccc5n43)CC2)NC(=O)C2CC(O)CN2C(=O)C(NC(=O)C2(F)CC2)C(C)(C)C)cc1 (stereo not shown) = 42.2

---

Biological target: SMARCA2 (Homo sapiens)
Sequence (P51531 whole entry): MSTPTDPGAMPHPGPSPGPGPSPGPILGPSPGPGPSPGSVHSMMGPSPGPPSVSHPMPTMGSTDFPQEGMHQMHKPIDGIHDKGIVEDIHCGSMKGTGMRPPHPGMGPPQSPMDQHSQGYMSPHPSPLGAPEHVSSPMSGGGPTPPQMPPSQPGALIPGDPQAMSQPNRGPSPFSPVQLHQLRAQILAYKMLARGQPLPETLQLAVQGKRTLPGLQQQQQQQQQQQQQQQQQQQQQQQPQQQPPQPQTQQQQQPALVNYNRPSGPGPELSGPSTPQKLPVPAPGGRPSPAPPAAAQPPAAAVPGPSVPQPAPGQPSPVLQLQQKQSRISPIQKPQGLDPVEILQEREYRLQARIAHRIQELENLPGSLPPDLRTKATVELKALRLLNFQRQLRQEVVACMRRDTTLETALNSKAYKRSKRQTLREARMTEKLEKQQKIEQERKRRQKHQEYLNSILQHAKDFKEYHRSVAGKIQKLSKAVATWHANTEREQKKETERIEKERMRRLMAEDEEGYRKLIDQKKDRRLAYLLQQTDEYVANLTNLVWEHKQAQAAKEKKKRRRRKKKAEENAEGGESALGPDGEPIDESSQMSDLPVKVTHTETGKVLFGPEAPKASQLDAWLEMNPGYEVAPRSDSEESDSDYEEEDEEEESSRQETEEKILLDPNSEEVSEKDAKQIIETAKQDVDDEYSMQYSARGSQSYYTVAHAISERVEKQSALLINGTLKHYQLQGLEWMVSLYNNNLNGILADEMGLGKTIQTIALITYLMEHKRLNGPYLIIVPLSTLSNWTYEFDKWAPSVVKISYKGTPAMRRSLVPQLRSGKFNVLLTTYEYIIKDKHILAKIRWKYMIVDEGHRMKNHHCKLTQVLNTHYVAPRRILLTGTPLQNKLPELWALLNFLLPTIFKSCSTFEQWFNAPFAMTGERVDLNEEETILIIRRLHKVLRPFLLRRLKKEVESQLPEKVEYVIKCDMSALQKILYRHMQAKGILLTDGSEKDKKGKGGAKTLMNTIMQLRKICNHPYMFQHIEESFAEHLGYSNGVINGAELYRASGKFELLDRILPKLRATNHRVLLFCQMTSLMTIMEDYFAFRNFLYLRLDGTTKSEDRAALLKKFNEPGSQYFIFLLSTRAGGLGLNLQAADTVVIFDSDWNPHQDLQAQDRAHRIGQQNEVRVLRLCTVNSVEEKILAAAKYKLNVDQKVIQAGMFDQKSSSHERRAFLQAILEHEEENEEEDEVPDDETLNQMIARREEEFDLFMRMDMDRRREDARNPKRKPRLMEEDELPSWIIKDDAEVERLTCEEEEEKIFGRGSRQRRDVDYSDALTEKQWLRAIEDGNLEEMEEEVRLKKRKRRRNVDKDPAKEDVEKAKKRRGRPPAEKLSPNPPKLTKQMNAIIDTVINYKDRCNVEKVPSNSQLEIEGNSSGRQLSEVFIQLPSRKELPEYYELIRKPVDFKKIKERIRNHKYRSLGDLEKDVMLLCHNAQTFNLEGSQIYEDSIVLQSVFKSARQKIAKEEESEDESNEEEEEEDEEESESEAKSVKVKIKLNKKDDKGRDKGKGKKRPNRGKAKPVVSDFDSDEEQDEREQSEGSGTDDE
Test: SMARCA2 capillary electrophoresis protein assay in RKO cells
Format: cell-based
Set-up: endogenous in cells; host or cells: RKO, NCI-H1568, A549, HCT116, LU99, HCC-364, HCT-15, HCC4006, SK-N-AS
Details: RKO, RKO (4 h); mean ± SD
Experimental: 130,000–200,000 cells were seeded in 24-well plates and incubated until settled down or overnight. Compounds were dissolved in DMSO and added to cells in indicated concentrations using a digital dispenser following an optional media change. […] For SMARCA2/4 half-life determination, 150,000 or 200,000 cells were seeded in 24-well plates. […] For SMARCA2/4 re-synthesis measurements, 200,000 cells were seeded in 24-well plates. […] Proteins were quantified with accompanying Compass Software. […]
measured-quantity: Dmax (%)

• Cc1ncsc1-c1ccc([C@H](COCCN2CCC(c3ccc4c(c3)n(C3CCCC3)c3nc(=O)c5c(Br)cccc5n43)CC2)NC(=O)[C@@H]2C[C@@H](O)CN2C(=O)[C@@H](NC(=O)C2(N(C)C)CC2)C(C)(C)C)cc1 = 77
• Cc1ncsc1-c1ccc([C@H](COC(C)CN2CCC(c3ccc4c(c3)n(C3CCCC3)c3nc(=O)c5c(Br)cccc5n43)CC2)NC(=O)[C@@H]2C[C@@H](O)CN2C(=O)[C@@H](NC(=O)C2(N(C)C)CC2)C(C)(C)C)cc1 (some centres unmarked) = 70
• Cc1ncsc1-c1ccc([C@H](CCCCCN2CCC(c3ccc4c(c3)n(C3CCCC3)c3nc(=O)c5c(Br)cccc5n43)CC2)NC(=O)[C@@H]2C[C@@H](O)CN2C(=O)[C@@H](NC(=O)C2(F)CC2)C(C)(C)C)cc1 = 73
• Cc1ncsc1-c1ccc([C@H](COC(C)CN2CCC(c3ccc4c(c3)n(C3CCCC3)c3nc(=O)c5c(Br)cccc5n43)CC2)NC(=O)[C@@H]2C[C@@H](O)CN2C(=O)[C@@H](NC(=O)C2(F)CC2)C(C)(C)C)cc1 (some centres unmarked) = 72
• Cc1ncsc1-c1ccc(C(CCC(C)CCN2CCC(c3ccc4c(c3)n(C3CCCC3)c3nc(=O)c5c(Br)cccc5n43)CC2)NC(=O)C2CC(O)CN2C(=O)C(NC(=O)C2(F)CC2)C(C)(C)C)cc1 (centres unmarked) = 71
